Provenance of the data: patent US6506880B2

test: Circular dichroic spectrometry, percent helicity of peptides; assay type: physicochemical; conditions: peptide alone, 100 μM in PBS, pH 7.4, 25° C.
measure-name: Percent Helicity, Peptide (%)
Quick reminder: number only, in %, skip the unit.

substance: LRKLRKRLLR-18A (LRKLRKRLLRDWLKAFYDKVAEKLKEAF) [hE-18A, 141-150 region of human apo E linked to class A amphipathic helical peptide 18A]
Percent Helicity, Peptide [%]: 36.0
--
substance: LRKMRKRLMR-18A (DOMAIN 133..142 mouse apolipoprotein E receptor binding domain; listed as Mus sp.) [mE-18A]
Percent Helicity, Peptide [%]: 36.3
--
substance: Ac-hE18A-NH2: end protected analog of hE18A (acetyl and amino groups) (Ac-LRKLRKRLLRDWLKAFYDKVAEKLKEAF-NH2)
Percent Helicity, Peptide [%]: 69.3

In: Return reported Percent Helicity, Peptide. Input substance: LRRLRRRLLR-18A (an analog of human apolipoprotein E receptor binding domain) [hE-(R)18A, analog of hE-18A with Lys replaced by Arg]
Out: 51.2
